Measured values drawn from PubChem BioAssay (NCI) for this set.

Quick list: TGI per entry.
# Tested on: SK-MEL-28 melanoma
# PROTOCOL_NOTES: NCI tumour cell line growth inhibition, 48 h
OBSERVATION_TYPE: TGI

- CCN(CC)CCCCCCCCNc1c2ccc(Cl)cc2nc2ccc(OC)cc12: 3.63 µM
- CC(=O)NC1(C)CCC(C(C)(C)NC(C)=O)CC1 (stereo not given): > 100 µM
- Cc1c(-c2ccccc2)c(C#N)c2nnn(-c3ccccc3)c(=O)n12: > 100 µM
- COc1cc(C2c3cc4c(cc3C(O)C3CCC(=O)N23)OCO4)cc(OC)c1OC (stereo not given): > 100 µM
- CCSSCS(C)(=O)=O: > 100 µM

###

# Tested on: SNB-19 CNS
# PROTOCOL_NOTES: NCI tumour cell line growth inhibition, 48 h; in the data active means GI50 below about 0.43 µM; inactive means the rest
Classes used: active, inactive

* C(=N\Nc1ncc(-c2cc3cc4c(cc3o2)OCO4)s1)/c1c[nH]c2ccccc12 | inactive
* CCCCc1ccc2nc(NC(=O)OC)[nH]c2c1 | active
* O=C1CCC/C=C\C[C@H]2C=C(Cl)C(=O)/C2=C/C[C@H](CCCCC(F)(F)F)OC(=O)CCC/C=C\C[C@H]2C=C(Cl)C(=O)/C2=C/C[C@H](CCCCC(F)(F)F)O1 | active
* COc1ccccc1/C=C1\COc2ccc(O)c(O)c2C1=O | inactive
* COc1cc[c]([Hg][Cl])cc1 | inactive
* COc1ccc(NC(=O)c2ccc(NC3=C(Cl)C(=O)N(Cc4ccccc4)C3=O)cc2)cc1 | inactive
* Cc1cc(Cl)n2c(nc3ccccc32)c1C#N | inactive
* COc1ccc(/C=C2/SC(=Nc3c(C)nn(-c4ccccc4)c3N)NC2=O)cc1 | inactive
* O=C(CCCCCCc1nc2ccc(Br)cc2[nH]1)NO | inactive
* Cc1ncc(C(=O)Nc2ccc(CN3CCN(C)CC3)c(C(F)(F)F)c2)cc1C#Cc1c(N)ncc2ccc(C#N)cc12 | inactive
* CC[C@]1(O)C[C@@H]2CN(Cc3c([nH]c4ccccc34)[C@@](C(=O)OC)(c3cc4c(cc3OC)N(C)[C@H]3[C@@](O)(C(=O)OC)[C@H](OC(C)=O)[C@]5(CC)[C@@H]6C[C@@H]6CN6CC[C@]43[C@@H]65)C2)C1 | active
* CC(C)Oc1cc(OCC(=O)O)cc(C(=O)N(CCC(N)=O)C(=O)Nc2ccc(C(=O)O)cc2OC(C)C)c1 | inactive
* c1ccc([CH2][Sn]([CH2]c2ccccc2)([S]c2cccc3cccnc23)[S]c2cccc3cccnc23)cc1 | inactive

###

# Test system: TK-10 renal
# PROTOCOL_NOTES: NCI tumour cell line growth inhibition, 48 h
OBSERVATION_TYPE: TGI (µM)

- CN(C)CCCn1c(Cc2ccccc2)nc2cc(C(F)(F)F)ccc21: 98.4
- Cc1cc(O)c(C(C)C)cc1NC(=O)Nc1cccc2ccccc12: 32.5
- CSc1nc2ccccc2c(=O)n1/N=C1\C(=O)N(CN2CCOCC2)c2ccc(Cl)cc21: 71.4
- FC(F)(F)c1ccc2nc(-c3nc(-c4ccccc4)n4ccccc34)[nH]c2c1: 5.32
- CN(NC(=O)/C(=C/c1ccc(O)cc1)NC(=O)c1ccccc1)c1ccnc2cc(Cl)ccc12: 30
- CCNc1nc(N)c(C(=O)c2ccc(Cl)cc2)s1: 54.4
